System: SF-295
Assay: NCI tumour cell line growth inhibition, 48 h
Active and inactive are the calls of the source. Rule as the data show it: active = GI50 up to about 1.1 µM and inactive = higher.
readoutType: GI50

1) Cc1sc2nc3n(sc4nc5sc(C)c(C)c5c(=O)n43)c(=O)c2c1C | > 100 µM (inactive)
2) O=S(=O)(c1cnccc1N1CCN(CCO)CC1)N1CCCC1 | > 100 µM (inactive)
3) CCOC(=O)COc1ccc(OC)c2c1C(=O)CCC2 | > 100 µM (inactive)
4) O=C(NNC(=O)c1cc2ccccc2[nH]1)c1cc2ccccc2[nH]1 | > 100 µM (inactive)
5) O=C(Oc1c(Cl)cc(C2(c3cc(Cl)c(OC(=O)c4ccccc4)c(Cl)c3)CCCCC2)cc1Cl)c1ccccc1 | 13.4 µM (inactive)
6) CC(C)(C)c1cc(C(O)(C(F)(F)F)C(F)(F)F)c2c(c1)C(C(F)(F)F)(C(F)(F)F)OC(C)(C(C)(C)C)N2 (centres undefined) | 4.73 µM (inactive)
7) Nn1c(CCCCCCCCc2nnc(COc3ccc4ccccc4c3O)n2N)nnc1COc1ccc2ccccc2c1O | 28.6 µM (inactive)
8) C[N+]1([O-])[C@H]2CC(OC(=O)[C@H](CO)c3ccccc3)C[C@H]1[C@H]1O[C@H]12 (some centres undefined) | > 100 µM (inactive)
9) Nc1ccc2c(SCc3ccc([N+](=O)[O-])cc3)c3ccccc3nc2c1 | 18.2 µM (inactive)
